From: ChEMBL document CHEMBL4421722

Species on record: Rattus norvegicus
assay text: Inhibition of rat recombinant geranylgeranyltransferase type I expressed in Escherichia coli assessed as residual enzyme activity for geranylgeranylation of K-Ras4B at 50 uM incubated for 30 mins in presence of [3H]GGPP by scintillation counting assay relative to control
metric: Activity

Before answering, review these 2 worked examples.
[
  {
    "smiles structure": "CCc1ccc([C@@H]2C[C@@H](SCCc3ccccc3)[C@H](C(=O)O)CN2S(=O)(=O)c2ccc(C)cc2)cc1",
    "Activity": "2.3 to 3%"
  },
  {
    "smiles structure": "Cc1ccccc1S(=O)(=O)N1[C@@H](c2cccc(F)c2)C(C(=O)O)=CC[C@H]1c1ccc(Cl)cc1",
    "Activity": "5.4 to 13.4%"
  }
]

Here is the next item to consider.
Reported Activity of `Cc1ccc([C@@H]2C[C@@H](SCc3ccc(Cl)cc3)[C@H](C(=O)O)CN2S(=O)(=O)c2ccc(Cl)cc2)cc1` : 30.8 to 31.6%
